# Assay protocol: Atropisomer interconversion detected by 19F-NMR in deuterated DMSO
# Assay type: physicochemical
# Experimental setup: deuterated DMSO solution, deuterated DMSO at 25° C.; read-out: half-life of conversion from the major to the minor atropisomer for the biaryl rotation (converted)
Endpoint name: half-life at 26.7 mg/mL

Which half-life at 26.7 mg/mL is reported for this compound? Cc1cc(CC(=O)O)c(C(C)(C)CC(=O)N(c2nn(CC(F)(F)F)c3c(-c4ccc(C#CC(C)(C)S(C)(=O)=O)nc4[C@H](Cc4cc(F)cc(F)c4)NC(=O)Cn4nc(C(F)(F)F)c5c4C(F)(F)[C@@H]4C[C@H]54)ccc(Cl)c23)S(C)(=O)=O)c(OP(=O)(O)O)c1 [Compound 1]
~71.6 h
